# Target Under Test: C-C chemokine receptor type 5 (Homo sapiens, UniProt P51681)
# Sequence (P51681 whole entry): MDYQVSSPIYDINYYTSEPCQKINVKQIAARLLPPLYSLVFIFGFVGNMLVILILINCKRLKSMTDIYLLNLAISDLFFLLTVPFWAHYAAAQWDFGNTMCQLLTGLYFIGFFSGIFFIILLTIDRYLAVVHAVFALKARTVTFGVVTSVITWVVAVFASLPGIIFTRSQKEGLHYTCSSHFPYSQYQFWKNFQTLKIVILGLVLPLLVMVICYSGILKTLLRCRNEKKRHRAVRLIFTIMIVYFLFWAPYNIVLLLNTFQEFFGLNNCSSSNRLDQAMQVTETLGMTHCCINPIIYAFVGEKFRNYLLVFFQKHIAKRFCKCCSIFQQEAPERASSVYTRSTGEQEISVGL
Measured Attribute: Ki (nM)

| Chemical Structure | Measured Attribute | Units Text | Measured Number |
| --- | --- | --- | --- |
| Cc1ccc(-c2ccc3c(c2)C=C(C(=O)Nc2ccc(C[N+](C)(C)C4CCOCC4)cc2)CCC3)cc1 | Ki | nM | 1.4 |

###

# Target Under Test: C-C chemokine receptor type 2 (Homo sapiens, UniProt P41597)
# Sequence (P41597 whole entry): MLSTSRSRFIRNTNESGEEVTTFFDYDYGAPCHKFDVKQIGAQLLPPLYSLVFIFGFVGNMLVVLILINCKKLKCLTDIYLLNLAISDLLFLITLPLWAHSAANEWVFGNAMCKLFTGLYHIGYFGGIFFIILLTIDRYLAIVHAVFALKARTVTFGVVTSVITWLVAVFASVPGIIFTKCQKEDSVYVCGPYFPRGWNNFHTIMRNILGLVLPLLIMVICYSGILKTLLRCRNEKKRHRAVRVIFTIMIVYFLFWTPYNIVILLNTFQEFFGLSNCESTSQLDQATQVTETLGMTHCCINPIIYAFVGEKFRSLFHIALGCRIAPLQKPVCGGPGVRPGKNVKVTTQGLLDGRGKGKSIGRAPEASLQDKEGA

| Molecule | IC50 |
| --- | --- |
| CN(C[C@@H](CCN1CCC2(CC1)C[S+]([O-])c1ccccc12)c1cccc(Cl)c1)S(=O)(=O)c1ccccc1 (stereo partly specified) | > 10 µM |
